Residues, ends and D or L forms follow the SMILES beside them. *: point of attachment. Cbz = O=C(OCc1ccccc1)*
reported_endpoint: melting point

Check out these entries, answers already filled in.
compound: COc1ccc2c(C)n[nH]c(=O)c2c1
endpoint_result: 203 to 205 °C
--
compound: c1ccc(C(c2ccccc2)N2CCN(CCCCCCNc3ccc4nncn4n3)CC2)cc1
endpoint_result: 133 to 139 °C
--
compound: COC(=O)C(Cc1ccccc1)NC(=O)C(Cc1ccccc1)NC(=O)CNC(=O)OCc1ccccc1 (stereo not drawn) (Cbz-Gly-Phe-Phe-OMe; configuration not given here)
endpoint_result: 122 to 124 °C
--
compound: CC(=O)Nc1ccccc1N(CC(=O)OC(C)(C)C)C(=O)CN1C(=O)c2ccccc2C1=O
endpoint_result: 170 °C
--
compound: COc1ccc2c(c1)C(c1ccc(Cl)cc1)=C1CCC(=S)NC12 (stereo unspecified)
endpoint_result: 202 to 203 °C

Now look at this entry.
Entry CCCCCCOc1c(F)cc(F)c(C(N)=O)c1F has what melting point?
89 to 90 °C

----------
Each item that follows carries a reported melting point.

compound: COc1ccc(C(=O)Nc2nc(=O)c3cnn4c3n2CC=C4c2cccc(C(F)(F)F)c2)cc1
endpoint_result: 271 to 273 °C

compound: COC(=O)c1cccc(O)c1C
endpoint_result: 74 to 75 °C

compound: Cc1cc(COc2ccc(C(=O)NC[C@@H](C(=O)NO)N3CCCCC3)cc2)c2ccccc2n1
endpoint_result: 190 °C

compound: O=C(NCCCc1cccs1)n1cc(F)c(=O)[nH]c1=O
endpoint_result: 131 to 133 °C

compound: Cc1ccc(C)c(P(=O)(C(=O)c2c(Cl)cccc2Cl)C(=O)c2c(Cl)cccc2Cl)c1
endpoint_result: 172 °C

I would be grateful if you could share the reported melting point for O=C(NC1CC1)c1nc(-c2ccccc2)c(-c2ccc(=O)n(Cc3ccccc3)n2)s1 .
151 to 152 °C

// returns reported melting point for input O=S1(=O)NC[C@@H](O)c2cc(Cl)sc21
126 to 127 °C

Please give the measured melting point for this compound: COc1ccc(N2CCOCC2)c2sc(NC(=O)N(C)C3CCC(F)(F)CC3)nc12
189 to 192 °C

Any idea what its melting point is? The compound is Cc1nc(-n2cc(CCC3CCCCC3)nn2)sc1C(=O)NCc1ccccc1
82 to 84 °C

Need melting point of CCCCCC(O)(CC#N)c1ccc(OC)cc1 (stereo unspecified) , thanks.
45 to 47 °C

What value of melting point has been reported for the following compound? Oc1cccc(N2CCCC2)n1
154 to 158 °C

// lookup melting point for Cc1ccccc1-c1cc(Cl)ncc1C#N
112 °C

May I ask what melting point has been recorded for CCc1nc2cnc3ccccc3c2n1CCCCN ?
84.8 to 88.7 °C

So what does the record say about melting point for Cc1cc2c(cc1C#N)C(c1ccccn1)=CC(C)(C)CO2 ?
171 °C

Look up melting point for this compound: CC1C(=NO)SCC(=O)N1C (stereo unspecified)
205 °C

Fill in the blank: the reported melting point of CC(C)=NNc1ccc(OCC(C)NCC(O)COc2ccccc2C#N)nn1 (stereo unspecified) is ____.
121 to 123 °C

Which melting point reading was recorded for the compound C=CCOC(=O)CCc1cc(C(C)(C)C)c(O)c(C(C)(C)C)c1 ?
40 °C

GET /values?readout=melting point&item= CCOC(=O)c1cc(Cc2ccccc2)c(O)c2ccccc12
79 to 80 °C

What value of measured melting point is listed for O=C(O)Cc1ccsc1Cc1nc2c(F)c(F)cc(F)c2s1 ?
142 to 144 °C

Report melting point for CN1CCC(c2c[nH]c3cnc(-n4cncn4)cc23)CC1 please.
209 to 211 °C

----------
List of melting point values.

Field: example entries. Status: answers known.
compound: CC(CC(=O)O)CC(=O)Nc1ccc(Cl)cc1 (centres undefined)
endpoint_result: 116 to 118 °C

compound: Oc1ccccc1Cc1ccc2ccccc2c1O
endpoint_result: 124 to 125 °C

compound: O=C(Nc1ccccc1)Oc1ccccc1
endpoint_result: 123 to 124 °C

compound: CCCCc1nn(-c2ccccc2C(F)(F)F)c(=O)n1Cc1ccc(-c2ccccc2S(=O)(=O)NC(=O)c2ccccc2)cc1
endpoint_result: 91 to 93 °C

compound: Cc1cnoc1-c1ccc2c(c1)c1cc(-c3ccc(Cl)cc3Cl)c(=O)n(C)c1n2C
endpoint_result: 233 to 234 °C

compound: O=C(O)c1cc2c(Cl)ncnc2s1
endpoint_result: > 265 °C

compound: COc1ccccc1/C=C/CN1CCC(=O)C(C(c2ccccc2)c2ccccc2)C1 (centres undefined)
endpoint_result: 117 to 118 °C

compound: CC(C)(C)OC(=O)N1CCN(c2cccc3ccc(Nc4ncccc4N)cc23)CC1
endpoint_result: 183 to 184 °C

What value of measured melting point is listed for CCCc1nc2c(N)nc3ccccc3c2n1OCC(N)=O ?
192 to 194 °C

Which melting point is listed for C(=C(c1ccccc1)c1ccccc1)C1CCN(CCCCCCCCCCc2cccnc2)CC1 ?
63 to 65 °C

Look up melting point: Cc1nc(N)c2nc(C)n(CCCCNS(C)(=O)=O)c2c1C
228 to 230 °C

Quick one: melting point of Cc1ccc(S(=O)(=O)c2ccc3[nH]cc(CCN)c3c2)cc1 ?
137 to 140 °C

Dear colleague, I am looking for the recorded melting point of the following compound: Cc1nnc(-c2ccc3occ(-c4ccc(OS(C)(=O)=O)cc4)c3c2)o1
139 to 140 °C

Entry O=C(O)c1ccc2c(c1)CCCS2(=O)=O has what melting point?
246 to 249 °C

Dear colleague, I am looking for the recorded melting point of the following compound: CCOC(=O)CC[C@H](NC(=O)c1ccc(CCc2cnc3nc(NC(=O)C(C)(C)C)nc(O)c3c2)cc1)C(=O)OCC
> 250 °C

Quick one: melting point for c1ccc2cc(OCc3ccc4ccccc4n3)ccc2c1 ?
100 to 102 °C

Which melting point value belongs to CCCOc1ccccc1-c1ccc(C#N)c(=S)[nH]1 ?
127 to 128 °C

Would you kindly share the measured melting point for CC(C)CC1(C(C)C(=O)O)CCN(CCc2ccccc2)C1=O (centres undefined) ?
94 to 95 °C

Using the record for Cc1oc2ccc(C3CC(=O)NC(=O)C3)cc2c1C , report its melting point.
183 to 185 °C

----------
Reported melting point values follow for various compounds

compound: CN(C)CCNc1ccc2c3c(nn2C)-c2ccncc2C(=O)c13
melting point: 212 to 216 °C

# lookup: melting point of Cc1cc(O)cc(C)c1-c1ccccc1
128 to 130 °C

Data request, read-out melting point, for CC=C1c2ccccc2CC(NO)c2ccccc21 (stereo unspecified)
121 to 124 °C

If you can, please state the reported melting point value of CCOC(=O)C1=C(CCN2C(=O)c3ccccc3C2=O)NC(CCN2C(=O)c3ccccc3C2=O)=C(C(=O)OCC)C1c1ccccc1Cl .
170 °C

What value of melting point has been reported for the following compound? O=C(O)CCCCC(=O)NCc1ccc2c(c1)C(=O)N(C1CCC(=O)NC1=O)C2=O (stereo unspecified)
144 to 146 °C

Name the reported melting point value associated with the compound CCOC(=O)c1cnc2onc(C)c2c1N(CS(=O)(=O)c1ccc(OC)cc1)c1cccnc1
128 to 130 °C

----------
Reported melting point is given for each of the following molecules.

Completed entries (count: 3):
molecule: CCc1nc2cnc3cc(O)ccc3c2n1CC(C)C
melting point: > 250 °C
//
molecule: CCCCC(=O)Nc1ccc(Cl)c(-n2nc(CCCC)c(Cc3ccc(-c4ccccc4S(=O)(=O)NC(=O)c4ccccc4Cl)cc3F)c2C#N)c1
melting point: > 95 °C
//
molecule: C[C@@H](NS(=O)(=O)c1ccc(-c2c(C#N)c3cc(Cl)ncc3n2C2CCC2)nc1)C(F)(F)F
melting point: 181 to 185 °C

Requested read-out: melting point. Entry: Cc1nn(-c2c(Cl)cc(C(F)(F)F)cc2Cl)nc1-c1nc(C#N)c(C#N)[nH]1
228 to 229 °C

State the recorded melting point for this entry: CC(C)N(CCCCOCC(=O)O)c1nc(-c2ccccc2)c(-c2ccccc2)nc1Cl
136 to 138 °C

Returns the measured melting point for the input molecule. Input: CC(C)SC1=N/C(=C\c2c[nH]c3ncc(Cl)cc23)C(=O)N1
291 to 293 °C

----------
reported_endpoint: melting point

Consider the reported melting point for these compounds:
compound: COc1cccc2c1OC1C=CC=C3C(=O)N(CC4CC4)C(=O)CC321 (stereo not given)
melting point: 166 to 167 °C
--
compound: O=C(O)c1cc(F)c(N2CCNCC2)nc1Nc1ccc(F)cc1F
melting point: 279 to 281 °C
--
compound: COC(=O)c1cccc(S(=O)(=O)N(C)C)c1CS(=O)(=O)NC(=O)Nc1nc(OC)cc(OC)n1
melting point: 175 to 180 °C
--
compound: CCSc1ncc(Oc2ccc(Cl)c(Cl)c2)cc1C#N
melting point: 80 to 81 °C
--
compound: CC(=O)NCC1CC(c2ccc(C3=CCN(C(=O)CO)CC3)cc2)=NO1 (stereo not given)
melting point: 115 to 118 °C
--
compound: COCCn1cc(-c2ccccc2)[nH]c1=O
melting point: 152 to 153 °C

Recorded melting point of FC(F)(F)c1ccc2cc3[nH]c(=S)[nH]c3nc2c1 , please.
> 320 °C

Could you share which melting point value was measured for c1cc2c(s1)CNCCS2 ?
138 to 139 °C

Quick check: melting point of O=C1CCC(c2ccccc2)(c2ccccc2)[C@@H]2CN(C(=O)Cc3ccccc3Br)C[C@H]12 (racemic) ?
217 °C
